Assign Ki to each entry below.
# experimental-target: JAK3 (Homo sapiens, UniProt P52333)
# Sequence (P52333 1-1124): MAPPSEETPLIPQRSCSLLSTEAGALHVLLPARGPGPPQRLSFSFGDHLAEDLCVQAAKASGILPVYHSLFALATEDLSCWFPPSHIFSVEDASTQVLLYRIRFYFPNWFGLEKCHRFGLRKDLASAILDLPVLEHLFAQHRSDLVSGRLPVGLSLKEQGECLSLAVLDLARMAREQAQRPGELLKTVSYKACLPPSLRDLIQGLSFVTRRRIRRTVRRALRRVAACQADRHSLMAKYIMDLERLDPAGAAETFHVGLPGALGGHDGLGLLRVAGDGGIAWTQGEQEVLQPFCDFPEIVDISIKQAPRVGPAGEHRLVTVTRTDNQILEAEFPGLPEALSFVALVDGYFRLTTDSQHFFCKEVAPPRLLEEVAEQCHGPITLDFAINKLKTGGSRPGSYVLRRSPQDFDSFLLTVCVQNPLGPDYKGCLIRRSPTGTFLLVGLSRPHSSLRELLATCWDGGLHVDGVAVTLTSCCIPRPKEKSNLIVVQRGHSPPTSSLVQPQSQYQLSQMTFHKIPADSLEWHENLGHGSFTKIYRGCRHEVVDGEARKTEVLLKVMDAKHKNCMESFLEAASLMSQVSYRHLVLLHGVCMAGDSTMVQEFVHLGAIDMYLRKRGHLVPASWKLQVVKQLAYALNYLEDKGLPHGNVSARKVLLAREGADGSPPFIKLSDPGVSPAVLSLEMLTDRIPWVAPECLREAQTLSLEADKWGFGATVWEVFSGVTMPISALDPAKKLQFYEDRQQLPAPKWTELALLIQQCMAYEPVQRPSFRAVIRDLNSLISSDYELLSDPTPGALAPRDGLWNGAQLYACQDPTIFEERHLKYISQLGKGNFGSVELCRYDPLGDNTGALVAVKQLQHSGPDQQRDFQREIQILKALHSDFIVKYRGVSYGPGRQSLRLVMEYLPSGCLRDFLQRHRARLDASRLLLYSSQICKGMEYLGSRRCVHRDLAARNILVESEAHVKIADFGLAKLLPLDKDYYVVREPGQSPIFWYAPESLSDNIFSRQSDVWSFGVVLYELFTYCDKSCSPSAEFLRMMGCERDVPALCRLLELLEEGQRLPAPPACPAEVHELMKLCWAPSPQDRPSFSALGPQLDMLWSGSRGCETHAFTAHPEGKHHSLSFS

Q: For the compound "CN(C)C(=O)c1cc(-c2nccc(NC(C)(C)C(=O)NCC(F)(F)F)n2)c[nH]1" , give its reported Ki.
Ans: ≤ 1 µM

Q: Indicate the recorded Ki value for this compound: "CC(=O)Nc1nc2ccc(-c3nccc(N[C@@H](C(=O)NCC(F)(F)F)C(C)C)n3)cc2s1"
Ans: 1 to 10 µM

Q: Specify reported Ki for the compound shown: "O=C(NCC(F)(F)F)[C@H]1CCCN1c1nc(-c2ccc3c(c2)OCO3)ncc1F"
Ans: 10 to 50 µM

Q: Return reported Ki. Input compound: "CC(=O)Nc1nc2ccc(-c3nccc(NC(C)(C)C(=O)NCC(F)(F)F)n3)cc2s1"
Ans: 1 to 10 µM

Where do the numbers come from? From patent US8686143B2.
